- Test system: NCI-H1650
- Method Description: relative viability (nuclei count vs DMSO), 5 days (fraction); higher = more cells survive
- Setup Conditions: first compound 0.006325 µM
Attribute Measured: relative viability
Simply state the number, no unit and no words.

| Compound | System Name | relative viability |
| --- | --- | --- |
| CC(=O)O[C@@]12CO[C@@H]1C[C@H](O)[C@@]1(C)C(=O)[C@H](O)C3=C(C)[C@@H](OC(=O)[C@H](O)[C@@H](NC(=O)OC(C)(C)C)c4ccccc4)C[C@@](O)([C@@H](OC(=O)c4ccccc4)[C@H]21)C3(C)C [Docetaxel] + CC(=O)c1c(C)c2cnc(Nc3ccc(N4CCNCC4)cn3)nc2n(C2CCCC2)c1=O [Palbociclib] (partner 0.5 µM) | NCI-H1650 | 0.216 |
| CC(=O)O[C@@]12CO[C@@H]1C[C@H](O)[C@@]1(C)C(=O)[C@H](O)C3=C(C)[C@@H](OC(=O)[C@H](O)[C@@H](NC(=O)OC(C)(C)C)c4ccccc4)C[C@@](O)([C@@H](OC(=O)c4ccccc4)[C@H]21)C3(C)C [Docetaxel] + Cc1cc(Nc2cc(N3CCN(C)CC3)nc(Sc3ccc(NC(=O)C4CC4)cc3)n2)n[nH]1 [Tozasertib] (partner 0.1 µM) | NCI-H1650 | 0.306 |

Continue with the next compound.
Lookup: Identify relative viability associated with the compound CC(=O)O[C@@]12CO[C@@H]1C[C@H](O)[C@@]1(C)C(=O)[C@H](O)C3=C(C)[C@@H](OC(=O)[C@H](O)[C@@H](NC(=O)OC(C)(C)C)c4ccccc4)C[C@@](O)([C@@H](OC(=O)c4ccccc4)[C@H]21)C3(C)C [Docetaxel] + CC(C)C[C@H](NC(=O)[C@H](Cc1ccccc1)NC(=O)c1cnccn1)B(O)O [Bortezomib] (partner 0.002 µM)
Found: 0.181
